# Tested on: 422866-222-R5-J1-PDC spheroids with HUVEC/MSC, viability
# procedureText: Anticancer human tumor 422866-222-R5-J1-PDC patient-derived pancreatic adenocarcinoma cell line growth inhibition [GQUAD]
# statedConditions: second compound 0.1 µM; first compound 0.1 µM; stronger effect = lower value
measureName: viability, T/C (%)

molecule	reportedMeasurement
CC1COCCN1c1cc(-c2ccnn2C)c2ccnc(-c3ccn[nH]3)c2n1 (stereo unspecified) + Cc1cnc(CNC(=O)c2c(=O)c3ccc(N4CCCN(C)CC4)nc3n3c2sc2ccccc23)cn1	53.1
O=C(NO)c1cnc(N2CCN(S(=O)(=O)c3ccc4ccccc4c3)CC2)nc1 + Cc1cnc(CNC(=O)c2c(=O)c3ccc(N4CCCN(C)CC4)nc3n3c2sc2ccccc23)cn1	75.1
CC1COCCN1c1cc(C2(O)CC3CCC(C2)O3)c2cnn(-c3ccn[nH]3)c2n1 (stereo unspecified) + Cc1cnc(CNC(=O)c2c(=O)c3ccc(N4CCCN(C)CC4)nc3n3c2sc2ccccc23)cn1	51
Nc1ccn(C2OC(CO)C(O)C2(F)F)c(=O)n1 (stereo unspecified) + Cc1cnc(CNC(=O)c2c(=O)c3ccc(N4CCCN(C)CC4)nc3n3c2sc2ccccc23)cn1	87
CCCS(=O)(=O)Nc1ccc(F)c(C(=O)c2c[nH]c3ncc(-c4ccc(Cl)cc4)cc23)c1F + Cc1cnc(CNC(=O)c2c(=O)c3ccc(N4CCCN(C)CC4)nc3n3c2sc2ccccc23)cn1	87.3
CC1COCCN1c1cc(C2(O)CC3CCC(C2)O3)c2cnn(-c3ccn[nH]3)c2n1 (stereo unspecified) + CN(C)c1ccc(Nc2c3ccc(NC(=O)CCN4CCCC4)cc3nc3cc(NC(=O)CCN4CCCC4)ccc23)cc1	49.7
COc1cccc2c1C(=O)c1c(O)c3c(c(O)c1C2=O)CC(O)(C(=O)CO)CC3OC1CC(N)C(O)C(C)O1 (stereo unspecified) + Cc1[nH]c2ccc(F)cc2c1-c1nc2c3cccnc3c3ncccc3c2[nH]1	65.6
CCCS(=O)(=O)Nc1ccc(F)c(C(=O)c2c[nH]c3ncc(-c4ccc(Cl)cc4)cc23)c1F + CN(C)c1ccc(Nc2c3ccc(NC(=O)CCN4CCCC4)cc3nc3cc(NC(=O)CCN4CCCC4)ccc23)cc1	91.6
COc1ncnc(C2CC2)c1-c1ncc2cnn(Cc3ccc(-c4nc(C(F)(F)F)cn4C(C)C)cc3)c2n1 + Cc1[nH]c2ccc(F)cc2c1-c1nc2c3cccnc3c3ncccc3c2[nH]1	97.4
C#Cc1c(F)ccc2cc(O)cc(-c3ncc4c(N5CC6CCC(C5)N6)nc(OCC56CCCN5CC(F)C6)nc4c3F)c12 (stereo unspecified) + Cc1cnc(CNC(=O)c2c(=O)c3ccc(N4CCCN(C)CC4)nc3n3c2sc2ccccc23)cn1	97.9
CC1COCCN1c1cc(C2(S(C)(=N)=O)CC2)nc(-c2ccnc3[nH]ccc23)n1 (stereo unspecified) + CN(C)c1ccc(Nc2c3ccc(NC(=O)CCN4CCCC4)cc3nc3cc(NC(=O)CCN4CCCC4)ccc23)cc1	98.3

* * *

# System: 422866-222-R5-J1-PDC spheroids with HUVEC/MSC, viability
# procedureText: Anticancer human tumor 422866-222-R5-J1-PDC cell line growth inhibition [GQUAD];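 further: spheroids exposed to compounds for seven days before reading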;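 on viability, T/C: percent viability relative to DMSO vehicle control taken as 100%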
# statedConditions: second compound 3.16 µM; first compound 10 µM; stronger effect = lower value
# Description: DNA G-quadruplex Stabilizer Agents in Combinations in Complex Spheroids A high-throughput screen of multi-cell type tumor spheroids was designed to identify active combinations of DNA G-quadruplex stabilizer agents and targeted small molecules. […] Compounds. […] If the clinical Cmax for an agent had not been determined, the highest concentration tested was 10 microM. […]
Catalogue of viability, T/C values
measureName: viability, T/C (%)

molecule	reportedMeasurement
O=C(c1cc(Cc2n[nH]c(=O)c3ccccc23)ccc1F)N1CCN(C(=O)C2CC2)CC1 + CN(C)c1ccc(Nc2c3ccc(NC(=O)CCN4CCCC4)cc3nc3cc(NC(=O)CCN4CCCC4)ccc23)cc1	80.6
CC1COCCN1c1cc(-c2ccnn2C)c2ccnc(-c3ccn[nH]3)c2n1 (stereo not given) + Cc1cnc(CNC(=O)c2c(=O)c3ccc(N4CCCN(C)CC4)nc3n3c2sc2ccccc23)cn1	61.8
CC1COCCN1c1cc(C2(O)CC3CCC(C2)O3)c2cnn(-c3ccn[nH]3)c2n1 (stereo not given) + Cc1[nH]c2ccc(F)cc2c1-c1nc2c3cccnc3c3ncccc3c2[nH]1	90.8
Nc1ccn(C2OC(CO)C(O)C2(F)F)c(=O)n1 (stereo not given) + Cc1[nH]c2ccc(F)cc2c1-c1nc2c3cccnc3c3ncccc3c2[nH]1	42.9
COc1cc(C2c3cc4c(cc3C(OC3OC5COC(C)OC5C(O)C3O)C3COC(=O)C23)OCO4)cc(OC)c1O (stereo not given) + Cc1[nH]c2ccc(F)cc2c1-c1nc2c3cccnc3c3ncccc3c2[nH]1	38.5
CC1COCCN1c1cc(C2(S(C)(=N)=O)CC2)nc(-c2ccnc3[nH]ccc23)n1 (stereo not given) + Cc1[nH]c2ccc(F)cc2c1-c1nc2c3cccnc3c3ncccc3c2[nH]1	40.2
C=CCn1c(=O)c2cnc(Nc3ccc(N4CCN(C)CC4)cc3)nc2n1-c1cccc(C(C)(C)O)n1 + Cc1cnc(CNC(=O)c2c(=O)c3ccc(N4CCCN(C)CC4)nc3n3c2sc2ccccc23)cn1	39.6
Nc1ccn(C2OC(CO)C(O)C2(F)F)c(=O)n1 (stereo not given) + CN(C)c1ccc(Nc2c3ccc(NC(=O)CCN4CCCC4)cc3nc3cc(NC(=O)CCN4CCCC4)ccc23)cc1	39.2
CC(C)n1c(=O)n(C)c2cnc3cc(F)c(-c4ccc(OCCCN5CCCCC5)nc4)cc3c21 + Cc1[nH]c2ccc(F)cc2c1-c1nc2c3cccnc3c3ncccc3c2[nH]1	63.9
C#Cc1c(F)ccc2cc(O)cc(-c3ncc4c(N5CC6CCC(C5)N6)nc(OCC56CCCN5CC(F)C6)nc4c3F)c12 (stereo not given) + Cc1[nH]c2ccc(F)cc2c1-c1nc2c3cccnc3c3ncccc3c2[nH]1	34.6
Cc1cccc(N(C)C(=O)C2C(O)CCN2c2nc(C)cc(C(F)(F)F)c2C#N)c1 (stereo not given) + CN(C)c1ccc(Nc2c3ccc(NC(=O)CCN4CCCC4)cc3nc3cc(NC(=O)CCN4CCCC4)ccc23)cc1	93.6
CCCS(=O)(=O)Nc1ccc(F)c(C(=O)c2c[nH]c3ncc(-c4ccc(Cl)cc4)cc23)c1F + Cc1[nH]c2ccc(F)cc2c1-c1nc2c3cccnc3c3ncccc3c2[nH]1	41.9
C=CC(=O)N1CCN(c2nc(=O)n(-c3c(C)ccnc3C(C)C)c3nc(-c4c(O)cccc4F)c(F)cc23)C(C)C1 (stereo not given) + CN(C)c1ccc(Nc2c3ccc(NC(=O)CCN4CCCC4)cc3nc3cc(NC(=O)CCN4CCCC4)ccc23)cc1	28.3
C=CC(=O)N1CCN(c2nc(=O)n(-c3c(C)ccnc3C(C)C)c3nc(-c4c(O)cccc4F)c(F)cc23)C(C)C1 (stereo not given) + Cc1cnc(CNC(=O)c2c(=O)c3ccc(N4CCCN(C)CC4)nc3n3c2sc2ccccc23)cn1	36.4
CC1COCCN1c1cc(C2(O)CC3CCC(C2)O3)c2cnn(-c3ccn[nH]3)c2n1 (stereo not given) + Cc1cnc(CNC(=O)c2c(=O)c3ccc(N4CCCN(C)CC4)nc3n3c2sc2ccccc23)cn1	76
CC(C)(O)C1CCC(Nc2ccc3ncc(-c4cccc(C(F)(F)F)c4)n3n2)CC1 (stereo not given) + CN(C)c1ccc(Nc2c3ccc(NC(=O)CCN4CCCC4)cc3nc3cc(NC(=O)CCN4CCCC4)ccc23)cc1	40.6
CC1COCCN1c1cc(-c2ccnn2C)c2ccnc(-c3ccn[nH]3)c2n1 (stereo not given) + CN(C)c1ccc(Nc2c3ccc(NC(=O)CCN4CCCC4)cc3nc3cc(NC(=O)CCN4CCCC4)ccc23)cc1	94.6
C=CCn1c(=O)c2cnc(Nc3ccc(N4CCN(C)CC4)cc3)nc2n1-c1cccc(C(C)(C)O)n1 + CN(C)c1ccc(Nc2c3ccc(NC(=O)CCN4CCCC4)cc3nc3cc(NC(=O)CCN4CCCC4)ccc23)cc1	42.6
CC(C)n1c(=O)n(C)c2cnc3cc(F)c(-c4ccc(OCCCN5CCCCC5)nc4)cc3c21 + CN(C)c1ccc(Nc2c3ccc(NC(=O)CCN4CCCC4)cc3nc3cc(NC(=O)CCN4CCCC4)ccc23)cc1	61.6
CC(=O)O[C@H]1C(=O)[C@@]2(C)[C@H]([C@H](OC(=O)c3ccccc3)[C@]3(O)C[C@H](OC(=O)[C@H](O)[C@@H](NC(=O)c4ccccc4)c4ccccc4)C(C)=C1C3(C)C)[C@]1(OC(C)=O)CO[C@@H]1C[C@@H]2O + CN(C)c1ccc(Nc2c3ccc(NC(=O)CCN4CCCC4)cc3nc3cc(NC(=O)CCN4CCCC4)ccc23)cc1	87.6

* * *

# Test system: 422866-222-R5-J1-PDC spheroids with HUVEC/MSC, viability
# procedureText: Anticancer human tumor 422866-222-R5-J1-PDC cell line growth inhibition [GQUAD];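 further: spheroids exposed to compounds for seven days before reading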
# statedConditions: curve of first compound; second compound 0.316 µM
pIC50: −log10 of the molar value.
measureName: pIC50

compound	reportedMeasurement
O=C(NO)c1cnc(N2CCN(S(=O)(=O)c3ccc4ccccc4c3)CC2)nc1 + Cc1[nH]c2ccc(F)cc2c1-c1nc2c3cccnc3c3ncccc3c2[nH]1	< 5.00
Cn1ncnc1[C@H]1c2n[nH]c(=O)c3cc(F)cc(c23)N[C@@H]1c1ccc(F)cc1 + CN(C)c1ccc(Nc2c3ccc(NC(=O)CCN4CCCC4)cc3nc3cc(NC(=O)CCN4CCCC4)ccc23)cc1	< 6.50
CC(C)n1c(=O)n(C)c2cnc3cc(F)c(-c4ccc(OCCCN5CCCCC5)nc4)cc3c21 + Cc1[nH]c2ccc(F)cc2c1-c1nc2c3cccnc3c3ncccc3c2[nH]1	< 5.00
C=CC(=O)N1CCN(c2nc(=O)n(-c3c(C)ccnc3C(C)C)c3nc(-c4c(O)cccc4F)c(F)cc23)C(C)C1 (stereo not given) + CN(C)c1ccc(Nc2c3ccc(NC(=O)CCN4CCCC4)cc3nc3cc(NC(=O)CCN4CCCC4)ccc23)cc1	> 7.50
O=c1[nH]cc(F)c(=O)[nH]1 + Cc1cnc(CNC(=O)c2c(=O)c3ccc(N4CCCN(C)CC4)nc3n3c2sc2ccccc23)cn1	< 5.00
